tested on: Staphylococcus aureus; test: Antibacterial activity against Staphylococcus aureus ATCC 29213 measured after 16 to 20 hrs by microdilution method; assay type: functional
readoutName: MIC (µg/mL)
All answers are understood in µg/mL, so give the number only.

Some solved entries appear below for comparison.
O=C(O)c1cccc(-n2c(SCc3ccccc3)nc3ccccc3c2=O)c1: 0.25
N#Cc1ccc(CNc2nc3ccccc3c(=O)n2-c2cccc(N)c2)cc1: 8
N#Cc1ccc(/C=C/c2nc3ccccc3c(=O)n2-c2cccc(NC(=O)CN3CCOCC3)c2)cc1: 32

Shift focus to the following entry.
Task: Please provide the recorded MIC for `Nc1cccc(-n2c(NCc3ccc(F)cc3)nc3ccccc3c2=O)c1` , tested on Staphylococcus aureus.
Output: 64

====

test system: Staphylococcus aureus; assay: Antibacterial activity against multi-drug resistant mec-positive Staphylococcus aureus USA300 measured after 16 to 20 hrs by microdilution method; type: functional
readoutName: MIC

Task: Recorded MIC of `O=C(O)c1cccc(-n2c(/C=C/c3ccc(Br)s3)nc3ccccc3c2=O)c1` , please.
Output: 0.5 µg/mL

Task: Bench note: what MIC did `N#Cc1ccc(/C=C/c2nc3ccccc3c(=O)n2-c2cc(C(=O)O)ccc2Cl)cc1` show?
Output: 1 µg/mL

Task: Requested field: MIC. Item: `N#Cc1ccc(/C=C/c2nc3ccccc3c(=O)n2-c2cccc(C(N)=O)c2)cc1`
Output: 1 µg/mL

====

Recorded selectivity ratio values for a group of molecules are listed next.
experiment: Selectivity index, ratio of IC50 for human HeLa cells to MIC for clindamycin/erythromycin/spectinomycin-resistant mec-positive Staphylococcus aureus NRS70; type: toxicity

Task: Consider the molecule `O=C(O)c1cccc(-n2c(/C=C/c3ccc(Cl)cc3)nc3ccccc3c2=O)c1` and give its measured selectivity ratio.
Output: 200

Task: So what's the measured selectivity ratio for this one? `O=C(O)c1cccc(-n2c(SCc3ccccc3)nc3ccccc3c2=O)c1`
Output: > 128

Task: Query (molecule): `N#Cc1ccc(/C=C/c2nc3ccccc3c(=O)n2-c2ccc[n+]([O-])c2)cc1` ; field requested: selectivity ratio
Output: > 128

Task: Given the molecule `N#Cc1ccc(/C=C/c2nc3ccccc3c(=O)n2-c2cc(C(=O)O)ccc2Cl)cc1` , what is its reported selectivity ratio?
Output: > 64

Task: What measured selectivity ratio goes with `C#Cc1ccc(/C=C/c2nc3ccccc3c(=O)n2-c2cccc(C(=O)O)c2)cc1` ?
Output: > 256

====

assay: AUC (0 to infinity) in ICR mouse at 10 mg/kg, iv by UV-UPLC analysis; type: ADME, organism-based; set-up: dose 10 mg/kg, time infinity, route intravenous; conditions: in vivo
readoutName: AUC(0-inf) (ng·h/mL)
Give your result in ng·h/mL as a bare value.

Task: Fill blank: measured AUC(0-inf) of the compound `N#Cc1ccc(/C=C/c2nc3ccccc3c(=O)n2-c2cc(C(=O)O)ccc2F)cc1` is ____.
Output: 22000

====

tested on: Staphylococcus aureus; assay: Antibacterial activity against Staphylococcus aureus ATCC 29213 measured after 16 to 20 hrs by microdilution method; type: functional
Please use yes for MIC under 1 µg/mL and no for everything else, ties included.

Worked cases, answers included:
O=C(O)c1cccc(-n2c(/C=C/c3cc[nH]c(=O)c3)nc3ccccc3c2=O)c1: no
N#Cc1ccc(/C=C/c2nc3ccccc3c(=O)n2-c2cccc(N)c2)cc1: yes
COC(=O)c1cccc(-n2c(NCc3ccc(C#N)cc3)nc3ccccc3c2=O)c1: no
CC(C(=O)O)n1c(/C=C/c2ccc(C#N)cc2)nc2ccccc2c1=O (stereo not given): no
N#Cc1ccc(/C=C/c2nc3ccccc3c(=O)n2-c2cc(C(=O)O)ccc2O)cc1: no

Task: Determine whether this compound shows MIC lower than 1 µg/mL (ties excluded): `O=C(O)c1cccc(-n2c(/C=C/c3ccc(Cl)s3)nc3ccccc3c2=O)c1`
Output: yes

Task: Given the entry `O=C(O)c1cccc(-n2c(/C=C/c3ccsc3)nc3ccccc3c2=O)c1` , would its reported MIC be below 1 µg/mL?
Output: no

Task: Problem: For the compound `O=C(O)c1cccc(-n2c(/C=C/c3ccc(=O)[nH]c3)nc3ccccc3c2=O)c1` , is MIC under 1 µg/mL?
Output: no

Task: Given `O=C(O)c1cccc(-n2c(CCc3ccc(F)cc3)nc3ccccc3c2=O)c1` , is recorded MIC strictly lower than 1 µg/mL?
Output: no

meta.source: ChEMBL document CHEMBL4342526
